Provenance of the data: paper PMC6567565

TGT: serotonin 5-HT2C receptor
ASSAY INFO: [3H]-mesulergine binding in native female hypothalami preparation
TEST PARAMETERS: reference compound
Experimental: Human frozen hypothalami were from a healthy person and a healthy person (Tissue Solutions Ltd., Glasgow, UK). The tissue was minced in 20 ml 10 mM HEPES pH 7.4, 1 mM EDTA on ice with a disperger (20 s at 28 Trpm) and centrifuged for 15 min at 31,600×g at 4 °C. The pellet was homogenized (10 strokes with a glass-teflon homogenizer, 2000 rounds per minute) at 4 °C and again centrifuged. […]
Structures can show the parent of a compound that is named as a salt.
VALUE KIND: IC50 (nM)
One number for each entry, in nM.

**Q:** // IC50 lookup, key: O=C1Nc2cc(Cl)c(Cl)cc2N2CCNCC12 (stereo not shown) [WAY 161503, WAY 161503 hydrochloride]
**A:** 347
